test system: CHIKV; experiment: Antiviral activity against CHIKV in NHDF cells; format: cell-based; conditions: Chikungunya virus, read-out: CHIKV (NHDF cells) EC90
Labelling: EC90 reported below 3 µM becomes true (1); at or above becomes false (0).

Compound: CCCC(=O)Nc1cnn([C@@H]2O[C@H](CO)[C@@H](O)[C@H]2O)c(=O)n1
Group label: false (0)

Compound: CCCCCOC(=O)Nc1cnn([C@@H]2O[C@H](CO)[C@@H](O)[C@H]2O)c(=O)n1
Group label: false (0)

Compound: CCCCCCCCCCCCCCCCCC(=O)OC[C@H]1O[C@@H](n2ncc(=O)[nH]c2=O)[C@H](O)[C@@H]1O
Group label: true (1)

Compound: CC(C)COC(=O)[C@H](C)NP(=O)(OC[C@H]1O[C@@H](n2ncc(=O)[nH]c2=O)C(O)[C@H]1O)Oc1ccccc1 (stereo in doubt)
Group label: false (0)

Compound: CC[C@@H](C)[C@@H](N)C(=O)OC[C@H]1O[C@@H](n2ncc(=O)[nH]c2=O)[C@H](O)[C@@H]1O
Group label: true (1)

Compound: CCC(CC)COC(=O)[C@H](C)NP(=O)(OC[C@H]1O[C@@H](n2ncc(=O)[nH]c2=O)[C@H](O)[C@@H]1O)Oc1ccccc1 (mixture of isomers)
Group label: false (0)

Compound: CC(C)OC(=O)[C@H](C)NP(=O)(OC[C@H]1O[C@@H](n2ncc(=O)[nH]c2=O)[C@H](O)[C@@H]1O)Oc1ccccc1 (mixture of isomers)
Group label: false (0)

Compound: CC(C)[C@@H](N)C(=O)OC[C@H]1O[C@@H](n2ncc(=O)[nH]c2=O)C(O)[C@H]1O (stereo partly drawn)
Group label: true (1)

Compound: CC[C@H](C)[C@@H](N)C(=O)OC[C@H]1O[C@@H](n2ncc(=O)[nH]c2=O)C(O)C1O (stereo partly drawn)
Group label: true (1)

Compound: C[C@H](NP(=O)(OC[C@H]1O[C@@H](n2ncc(=O)[nH]c2=O)[C@H](O)[C@@H]1O)Oc1ccccc1)C(=O)OCc1ccccc1 (mixture of isomers)
Group label: true (1)

Compound: O=C(Nc1cnn([C@@H]2O[C@H](CO)[C@@H](O)[C@H]2O)c(=O)n1)C1CC1
Group label: false (0)

Compound: C[C@H](NP(=O)(OC[C@H]1O[C@@H](n2ncc(=O)[nH]c2=O)[C@H](O)[C@@H]1O)Oc1ccccc1)C(=O)OCc1ccc([N+](=O)[O-])o1 (mixture of isomers)
Group label: true (1)

Compound: CC[C@H](C)[C@H](N)C(=O)OC[C@H]1O[C@@H](n2ncc(N)nc2=O)[C@H](O)[C@@H]1O
Group label: true (1)

Compound: O=C(Nc1cnn([C@@H]2O[C@H](CO)[C@@H](O)[C@H]2O)c(=O)n1)C1CCC1
Group label: false (0)

Compound: CC[C@H](C)[C@H](N)C(=O)OC[C@H]1O[C@@H](n2ncc(=O)[nH]c2=O)[C@H](O)[C@@H]1O
Group label: false (0)

Compound: CCCC(CCC)C(=O)Nc1cnn([C@@H]2O[C@H](CO)[C@@H](O)[C@H]2O)c(=O)n1
Group label: false (0)

Compound: CC(C)COC(=O)[C@H](C)N[P@](=O)(OC[C@H]1O[C@@H](n2ncc(=O)[nH]c2=O)[C@H](O)[C@@H]1O)Oc1cccc2ccccc12
Group label: false (0)

Compound: N[C@@H](Cc1ccccc1)C(=O)OC[C@H]1O[C@@H](n2ncc(=O)[nH]c2=O)[C@H](O)[C@@H]1O
Group label: false (0)

Compound: COC(=O)[C@H](C)NP(=O)(OC[C@H]1O[C@@H](n2ncc(=O)[nH]c2=O)[C@H](O)[C@@H]1O)Oc1ccccc1 (mixture of isomers)
Group label: false (0)

Compound: CCOC(=O)Nc1cnn([C@@H]2O[C@H](CO)[C@@H](O)[C@H]2O)c(=O)n1
Group label: false (0)

Compound: CCOC(=O)[C@H](C)NP(=O)(OC[C@H]1O[C@@H](n2ncc(=O)[nH]c2=O)[C@H](O)[C@@H]1O)Oc1ccccc1 (mixture of isomers)
Group label: false (0)
